tested on: MKL-1; experiment: qHTS assay to identify novel small-molecules to repurpose for Merkel cell carcinoma treatment (AID 1296009); conditions: MCC and control cell lines, CellTiter-Glo viability, 72 h; series mostly up to 46 µM; also: nearly all actives have a fitted effect of over 60% in size
Results filed as inconclusive are left out. Activity calls are given as the source filed them. Calls follow the shape of the dose curve; as a rule, active = well fitted inhibition curve with a large enough effect; inconclusive = small, poorly fitted or top-dose-only effect; inactive = flat fitted curve, though single readings scatter.
Parameter call: string, one of active, inactive

Look over these answered cases.
>  <molecule>
CCc1ccc(CCOc2ccc(CC3SC(=O)NC3=O)cc2)nc1 (stereo unspecified)

>  <assigned_label>
inactive

$$$$
>  <molecule>
CN(C)c1ccc(C2Nc3ccc4ccccc4c3C3=C2C(=O)CC(C)(C)C3)cc1Br (stereo unspecified)

>  <assigned_label>
inactive

$$$$
>  <molecule>
Fc1ccc(Cl)cc1-c1nc(Nc2ccncc2)c2nccnc2n1

>  <assigned_label>
inactive

$$$$

Now consider the entry below.
Exam item: Given CCn1c(-c2nonc2N)nc2c(C#CC(C)(C)O)ncc(OC[C@H]3CCCNC3)c21 , state the outcome it received in this test.
Marked response: inactive
